- protocol summary: chemical genetic growth profiling, strain panel (AID 1159580);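 note: tested at 20 µM; growth read once vehicle control cultures reached saturation at 30 °C; lower values mean less growth of the strain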
- details: S. cerevisiae deletion strains, growth OD, locus YDR150W, strain NUM1
The whole screen tested about 5,500 compounds, of which about 2,000 (36%) were called active. Another 18% or so got no clear call; they are omitted. Cut-off read from the data, not from the text of the source: active = normalized growth mostly below about 0.91 (no sharp cut-off); inconclusive = no clear call, values can overlap the other calls; inactive = mostly above about 0.92. The list shows a part of the results. Where a SMILES comes first, the peptide text is derived from it. Bridges are numbered along the chain shown (N, C = ends). [ ]: non-standard residue; d: D form. The star is where a group is joined. ξ: configuration not given here. ξDab(CH2SO3H) = NC(CCNCS(=O)(=O)O)C(=O)O; Heptanoyl(6-Me) = CC(C)CCCCC(=O)*; Dab = NCC[CH](N)C(=O)O
I would appreciate it if you answered using one of these outcomes: active, inactive

Please review the entries below; each comes with its answer.
O=[N+]([O-])c1ccccc1SCc1n[nH]c(=S)n1-c1cccc(C(F)(F)F)c1 :: inactive
Cc1c(S(=O)(=O)c2ccc(Cl)cc2)cnc2cc(C(C)(C)C)nn12 :: inactive
Cn1c(CSCC(=O)Nc2ccccc2)n[nH]c1=S :: inactive

Please share the test call associated with `CCOC(=O)NC(=O)c1cn(Cc2cccs2)c(=O)[nH]c1=O` .
inactive

Quick one: `Cc1cc(O)c2c(c1)Cc1cccc(O)c1C2=O`
inactive

Quick one: `Nc1ccccc1C(=O)N/N=C\c1cccc2ccccc12`
inactive

Quick one: N=C(N)c1ccc(OCCCCCOc2ccc(C(=N)N)cc2)cc1 (tested in a mixture with another compound)
inactive

Quick one: CCC(C)C1NC(=O)C(CCNCS(=O)(=O)O)NC(=O)C(NC(=O)C(CCNCS(=O)(=O)O)NC(=O)C(NC(=O)C(CCNCS(=O)(=O)O)NC(=O)CCCCC(C)C)C(C)O)CCNC(=O)C(C(C)O)NC(=O)C(CCNCS(=O)(=O)O)NC(=O)C(CCNCS(=O)(=O)O)NC(=O)C(C(C)CC)NC1=O (configuration not stated) ({Heptanoyl(6-Me)}-[ξDab(CH2SO3H)]T[ξDab(CH2SO3H)][Dab][ξDab(CH2SO3H)]II[ξDab(CH2SO3H)][ξDab(CH2SO3H)]T; lactam 4-C; configuration not given here)
inactive

Quick one: CCc1cc2c(cc1C(=O)CC1(O)C(=O)Nc3ccc(Br)cc31)C(C)(C)CCC2(C)C (configuration not stated)
inactive

Quick one: `O=C(N/N=C\c1c(O)ccc2ccccc12)N/N=C\c1c(O)ccc2ccccc12`
inactive

Quick one: `O=S(=O)(CCN1CCOCC1)c1ccc(Cl)cc1`
inactive

Quick one: `NC(=S)COc1ccccc1Cl`
inactive

Quick one: `COc1cc(N)c(Cl)cc1C(=O)NC1CCN(Cc2ccccc2)CC1`
inactive

Quick one: `Cc1nc(-c2nnc(Sc3ccc(C(F)(F)F)cc3[N+](=O)[O-])n2C)cs1`
inactive

Quick one: `COc1cccc(-c2nc(C#N)c(N)o2)c1`
inactive
